Species on record: Homo sapiens
Assay: Selectivity ratio of IC50 for wild type LRRK2 (unknown origin) to IC50 for LRRK2 G2019S mutant (unknown origin)
Listed here: items and their measured Ratio IC50.
Give the figure by itself; no unit, no explanation.

[[record]]
compound = "FC(F)(F)c1cccc(Sc2ccc3nnc(-c4ccccc4)n3n2)c1"
measurement_type = "Ratio IC50"
measured = 4.8

[[record]]
compound = "c1ccc(Sc2ccc3nnc(-c4cncs4)n3n2)cc1"
measurement_type = "Ratio IC50"
measured = 1.1

[[record]]
compound = "FC(F)(F)c1cccc(Sc2ccc3ncc(-c4cccs4)n3n2)c1"
measurement_type = "Ratio IC50"
measured = 2.1

[[record]]
compound = "FC(F)(F)c1cccc(Sc2ccc3nnc(-c4nccs4)n3n2)c1"
measurement_type = "Ratio IC50"
measured = 3.5

[[record]]
compound = "CC(Sc1ccc2nnc(-c3cccc(Cl)c3)n2n1)c1ccn[nH]1 (stereo not drawn)"
measurement_type = "Ratio IC50"
measured = 2.1


## Input Give the measured Ratio IC50 of "FC(F)(F)c1cccc(Sc2ccc3nnc(-c4cccnc4)n3n2)c1" .
## Output 3.3

## Input Give the measured Ratio IC50 of "Fc1ccc(-c2nnc3ccc(Sc4cccc(C(F)(F)F)c4)nn23)cc1" .
## Output 3.8
